Counter-ions that a name gives are not always drawn.
outcome_measure: melting point

Recorded results for 5 compounds are shown here.
1) NCC1Cc2cccc(-c3ccccc3)c2O1 (single isomer, unassigned; (-)) (as salt: hydrochloride) [Example 38]	220 to 222 °C
2) Cc1c(Cl)cc(C(C)C)c2c1CC(CN)O2 (racemic) (as salt: hydrochloride)	> 225 °C (dec.)
3) NCC1Cc2cccc(-c3cccc(F)c3)c2O1 (racemic) (as salt: hydrochloride) [Example 64]	200 to 202 °C
4) Cc1cccc(C)c1-c1cccc2c1CC(CN)O2 (racemic) (as salt: hydrochloride) [Example 125]	254 to 256 °C
5) COc1cc2c(c(C(C)(C)C)c1)OC(CN)C2 (racemic) (as salt: hydrochloride) [Example 13]	174 to 176 °C

Give the measured melting point of COc1ccc(-c2cccc3c2OC(CN)C3)c(OC)c1 (racemic) (as salt: hydrochloride) [Example 143] .
175 to 178 °C

Entry NCC1Cc2ccc(Cl)c(-c3ccccc3Cl)c2O1 (racemic) (as salt: hydrochloride) has what melting point?
221 to 223 °C

Which measured melting point value corresponds to CC(C)c1cccc2c1OC(CN)C2 (racemic) (as salt: hydrochloride) [Example 18] ?
160 to 164 °C (dec.)

Any idea what melting point was measured for NCC1Cc2c(cccc2-c2ccccc2)O1 (single isomer, unassigned; (-)) (as salt: hydrobromid) [Example 3] ?
227 to 228 °C

# melting point lookup, item NCC1Cc2cc(Cl)cc(-c3ccccc3Cl)c2O1 (racemic) (as salt: hydrochloride)
231 to 234 °C

Data request, read-out melting point, for NCC1Cc2cc(Cl)cc(-c3ccccc3)c2O1 (racemic) (as salt: hydrochloride) [Example 84]
258 °C (dec.)

# input compound: Cc1ccccc1-c1cc(F)c(F)c2c1OC(CN)C2 (racemic) (as salt: hydrochloride) ; wanted: its melting point
> 224 °C

Item under review: CC(C)(C)c1cc(Cl)cc2c1OC(CN)C2 (racemic) (as salt: hydrochloride) [Example 27] . Reported melting point?
229 to 231 °C

GET /values?readout=melting point&item= CNCC1Cc2cccc(-c3c(Cl)cccc3Cl)c2O1 (single isomer, unassigned; (-)) (as salt: hydrochloride)
195 to 197 °C
